System: AXL
Settings: concentration: 1 μM, replicates: in singlicate; n = 1;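 note: KINOMEscan kinase panel screen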
READOUT NAME: %Inh (%)
Expressed in %, but write only the number.

These solved cases illustrate the format of a correct answer.
1. O=c1cc(N2CCOCC2)nc2n(Cc3cccc(C(F)(F)F)c3)ccn12
18
2. Cc1c(Cn2c(C)nn3c(=O)cc(N4CCOC(C)C4)nc23)cccc1C(F)(F)F (centres unmarked)
0
3. COc1cc(Nc2nccc(N3CCC(NC(=O)c4cccc(NC(C)=O)c4)C3)n2)cc(OC)c1OC (centres unmarked)
36
4. COc1cc2c(cc1OC[C@@H](O)CO)ncc1c3ccc(C#N)cc3[nH]c21
17
5. Cc1cccc(-c2nc(Nc3ccc4ncsc4c3)c3ccccc3n2)n1
0

Entry NS(=O)(=O)CCc1cccc(Nc2nccc(-c3c(-c4cccc(NC(=O)c5c(F)cccc5F)c4)nn4ccccc34)n2)c1 , system AXL: what %Inh was measured?
90.5

# query: %Inh | item O=c1cc(N2CCOCC2)nc2n(Cc3cccc(F)c3)ccn12 | system: AXL
14

# returns recorded %Inh (system: AXL) for Cn1ccc2ncnc(Oc3ccc(NC(=O)Nc4ccncc4)c(Cl)c3)c21
0

Param readout = %Inh; param system = AXL; param query = Cc1cccc(-c2nc(-c3ccc(S(C)(=O)=O)cc3)sc2-c2ccncc2)c1 ; response: value
12

Lab note: need %Inh for Fc1ccc(-c2nn3c(OCC(F)(F)F)cccc3c2-c2ccncc2)cc1 on AXL, anyone have it?
0

Query %Inh on AXL for COc1ccc(COc2cc(-n3cnc4ccccc43)sc2C(N)=O)cc1
0

What is its %Inh for AXL? Entry: CN(C(=O)c1ccc(-c2cc(-c3c[nH]nc3-c3ccccn3)ccn2)cc1)C1CCOCC1
48

Tell me reported %Inh for c1ccc(-c2n[nH]cc2-c2ccnc3ccccc23)nc1 , tested with AXL.
11

What reported %Inh corresponds to CC(C)(C)n1cnc2c(N)ncnc21 on AXL?
45

Provide the documented %Inh with AXL as the system for Cc1ccc(NC(=O)c2ccnc(N3CCN(C)CC3)c2)cc1-c1ccc(C(=O)NCC2CC2)cc1
0

Item [2H]C([2H])(c1cccc(C(F)(F)F)c1C)n1ccn2c(=O)nc(N3CCOCC3)cc12 with AXL - %Inh?
8

Record lookup: for AXL, what %Inh belongs to Nc1nccc(-c2c(-c3ccc(F)cc3)ncn2C2CCN(CC(F)(F)F)CC2)n1 ?
46

Lab note: need %Inh with AXL for entry O=C(Nc1cccc(-c2nn3ncccc3c2-c2ccnc(Nc3cccc(C(F)(F)F)c3)n2)c1)c1c(F)cccc1F , please look it up.
6

State its %Inh on AXL: NCC(NC(=O)c1cc(-c2cn[nH]c2)c(-c2ccnc3[nH]ccc23)s1)c1ccccc1.O=C(O)C(F)(F)F.O=C(O)C(F)(F)F (centres unmarked)
45

Which %Inh is reported with AXL for this entry: Cc1cccc(Cn2ccn3c(=O)cc(N4CCOCC4)nc23)c1 ?
5

What value of %Inh on AXL does COC(=O)Nc1nc2cc(Oc3ccc(NC(=O)Nc4cc(F)ccc4F)cc3)ccc2[nH]1.Cl have?
93.5

What value of %Inh on AXL does O=c1cc(N2CCOCC2)nc2n(Cc3cccc4ccccc34)ccn12 have?
0

Please tell me: %Inh of Fc1ccc(-c2ncn(CCCN3CCOCC3)c2-c2cccnc2)cc1 , system AXL?
0

Recorded %Inh for NS(=O)(=O)c1cccc(-c2ccc3nccc(-c4cccc(S(N)(=O)=O)c4)c3c2)c1 with AXL, please?
0

Form entry - test system: AXL; read-out: %Inh; compound: O=C(NCCCN1CCOCC1)c1cccc(Nc2nccc(Nc3ccc(Oc4ccccc4)cc3)n2)c1
11

###

Test system: PLK3
Details: concentration: 1 μM, replicates: in singlicate; n = 1
READOUT NAME: %Inh (%)
A number alone suffices; assume %.

Sample records with %Inh:
1. CCc1ccnc(/C=C/c2n[nH]c3cc(Sc4ccccc4C(=O)NC)ccc23)c1
0
2. Cc1nnc(-c2ccc(C)c(-c3ccc(C(=O)Nc4ccc(NS(C)(=O)=O)cc4)cc3)c2)o1
7
3. CNc1ncnc2[nH]ncc12
23
4. O=C(NCCCN1CCOCC1)c1cccc(Nc2nccc(Nc3ccc(Oc4ccccc4)cc3)n2)c1
4

Which value of %Inh has been reported for Fc1ccc(-c2ncn(CCCN3CCOCC3)c2-c2cccnc2)cc1 in the records?
15

Please look up its %Inh: O=C(Nc1cccc(-c2nn3ncccc3c2-c2ccnc(Nc3cccc(C(F)(F)F)c3)n2)c1)c1c(F)cccc1F
2

Field request: %Inh | item: Cc1c(Cn2c(C)nn3c(=O)cc(N4CCOC(C)C4)nc23)cccc1C(F)(F)F (stereo not shown)
0

So what does the record say about %Inh for Cc1cccc(-c2nc(Nc3ccc4ncsc4c3)c3ccccc3n2)n1 ?
16

Record request: %Inh value, item O=C(NOCC1CC1)c1ccc(F)c(F)c1Nc1ccc(I)cc1Cl
0

Which %Inh value is on record for CCCCCc1nc2c(N)ncnc2n1CCCCC ?
27

What does the record list as %Inh for Fc1ccc(-c2nn3c(OCC(F)(F)F)cccc3c2-c2ccncc2)cc1 ?
0

Returns the measured %Inh for the input compound. Input: Cn1ccc2ncnc(Oc3ccc(NC(=O)Nc4ccncc4)c(Cl)c3)c21
0

Suppose we examine the compound CC(C)Oc1ccc2c(-c3ccnc(Nc4ccc(N5CCN(C)CC5)cc4)n3)cnn2n1 ; what %Inh value has been reported?
95.9

###

Test system: JNK2
Construct: gene MAPK9
Conditions: concentration: 1 μM, replicates: in singlicate; n = 1
Label class 1 for high-side %Inh (at or above 8%) and class 0 for low-side %Inh (below it).

1) Cn1ccc2ncnc(Oc3ccc(NC(=O)Nc4ccncc4)c(Cl)c3)c21
class 0

Threshold query (%Inh >= 8%) on Nc1nc(-c2ccc3c(N)n[nH]c3c2)cc(N2CCCC2)n1
class 1

Check this compound for %Inh at or above 8%: CN(C1=C(c2ccccc2)C(=O)NC1=O)c1ccccc1
class 1

###

Each entry below lists one item and its recorded %Inh value.
Tested on: RSK2(Kin.Dom.1-N-terminal)
Construct: gene RPS6KA3
Conditions: concentration: 1 μM, replicates: in singlicate; n = 1
Expressed in %, but write only the number.

Examples with their reported %Inh follow.
1) CN(C(=O)c1ccc(-c2cc(-c3c[nH]nc3-c3ccccn3)ccn2)cc1)C1CCOCC1
6
2) COc1ccc(S(=O)(=O)NC2CCN(c3cc(C)nc(Nc4cccc(C#N)c4)n3)CC2)cc1.O=C(O)C(F)(F)F
0
3) Cn1ccc2ncnc(Oc3ccc(NC(=O)Nc4ccncc4)c(Cl)c3)c21
0
4) CCc1ccnc(/C=C/c2n[nH]c3cc(Sc4ccccc4C(=O)NC)ccc23)c1
8

Please state recorded %Inh (tested on RSK2(Kin.Dom.1-N-terminal)) of Cl.Nc1ncnc2occ(-c3ccc(NC(=O)Nc4cc(C(F)(F)F)ccc4F)cc3)c12
25

Observed %Inh on RSK2(Kin.Dom.1-N-terminal) for O=c1cc(N2CCOCC2)nc2n(Cc3cccc(C(F)(F)F)c3)ccn12 , please.
16

# query: %Inh | item Fc1ccc(-c2ncn(CCCN3CCOCC3)c2-c2cccnc2)cc1 | system: RSK2(Kin.Dom.1-N-terminal)
34

Look up %Inh with RSK2(Kin.Dom.1-N-terminal) for this compound: O=C(NCCCN1CCOCC1)c1cccc(Nc2nccc(Nc3ccc(Oc4ccccc4)cc3)n2)c1
0

###

Tested on: CSNK1E
Conditions: concentration: 1 μM, replicates: in singlicate; n = 1
READOUT NAME: %Inh
Please give the number followed by its unit.

State the recorded %Inh for this entry: Cc1cn2c(=O)cc(N3CCOCC3)nc2n1Cc1cccc(Cl)c1Cl
45%

###

Test system: PCTK2
Construct: gene CDK17
Conditions: concentration: 1 μM, replicates: in singlicate; n = 1
READOUT NAME: %Inh (%)
A number alone suffices; assume %.

1. COc1cc2ncn(-c3cc(OCc4sccc4Cl)c(C(N)=O)s3)c2cc1OC
0
2. O=c1cc(N2CCOCC2)nc2n(Cc3cccc(F)c3)ccn12
0
3. COc1ccc(S(=O)(=O)NC2CCN(c3cc(C)nc(Nc4cccc(C#N)c4)n3)CC2)cc1.O=C(O)C(F)(F)F
0
4. CCCCCc1nc2c(N)ncnc2n1CCCCC
0
5. O=c1cc(N2CCOCC2)nc2n(Cc3cccc(C(F)(F)F)c3)ccn12
0
6. Fc1ccc(-c2ncn(CCCN3CCOCC3)c2-c2ccccn2)cc1
2
7. CN1c2ccc(CNc3ccc(F)cc3)cc2-c2c(cnn2C)S1(=O)=O
0
8. N#Cc1ccc(-c2cc(-c3c[nH]nc3-c3ccccn3)ccn2)cc1
0

Fill in the blank: the reported %Inh of CN(C1=C(c2ccccc2)C(=O)NC1=O)c1ccccc1 is ____.
8

Looking for the measured %Inh of COc1ccc(Nc2nccc(N3CCC(NC(=O)Nc4cccc(C(C)=O)c4)C3)n2)cc1 (centres unmarked) , can you help?
0

Request the reported %Inh associated with O=C(NCCCN1CCOCC1)c1cccc(Nc2nccc(Nc3ccc(Oc4ccccc4)cc3)n2)c1
22
